System: SYO-1
Protocol: relative viability vs DMSO control (72 h) (fraction); higher = more viable cells
Recorded Conditions: 0.00152 µM

Compound: COc1cc2ncnc(Nc3ccc(F)c(Cl)c3)c2cc1OCCCN1CCOCC1 [Gefitinib]
Test Target: SYO-1
relative viability: 0.999
--
Compound: COc1cc(Nc2ncc3c(n2)-c2ccc(Cl)cc2C(c2c(F)cccc2OC)=NC3)ccc1C(=O)O [Alisertib]
Test Target: SYO-1
relative viability: 0.903
--
Compound: O=S(=O)(c1cccc2c(O)nccc12)N1CCCNCC1 [Hydroxyfasudil]
Test Target: SYO-1
relative viability: 0.97
--
Compound: CS(=O)(=O)CCNCc1ccc(-c2ccc3ncnc(Nc4ccc(OCc5cccc(F)c5)c(Cl)c4)c3c2)o1 [Lapatinib]
Test Target: SYO-1
relative viability: 0.958
--
Compound: Cc1[nH]c(/C=C2\C(=O)Nc3ccccc32)c(C)c1CCC(=O)O [Orantinib]
Test Target: SYO-1
relative viability: 1.02
--
Compound: CN(C)CCCOc1ccc(-c2ccc3ncc4c(c3c2)n(C2CCOCC2)c(=O)n4C)cn1 [AZD-0156]
Test Target: SYO-1
relative viability: 0.983
--
Compound: Cn1cnc2c(F)c(Nc3ccc(Br)cc3Cl)c(C(=O)NOCCO)cc21 [Selumetinib]
Test Target: SYO-1
relative viability: 0.952
--
Compound: CCOc1cc2ncc(C#N)c(Nc3ccc(OCc4ccccn4)c(Cl)c3)c2cc1NC(=O)/C=C/CN(C)C [Neratinib]
Test Target: SYO-1
relative viability: 0.938
--
Compound: CO[C@H]1C[C@@H]2CC[C@@H](C)[C@@](O)(O2)C(=O)C(=O)N2CCCC[C@H]2C(=O)O[C@H]([C@H](C)C[C@@H]2CC[C@@H](OC(=O)C(C)(CO)CO)[C@H](OC)C2)CC(=O)[C@H](C)/C=C(\C)[C@@H](O)[C@@H](OC)C(=O)[C@H](C)C[C@H](C)/C=C/C=C/C=C/1C [Temsirolimus]
Test Target: SYO-1
relative viability: 0.878

---

System: RD-ES
Protocol: relative viability vs DMSO control (72 h) (fraction); higher = more viable cells
Recorded Conditions: 1.111 µM

Molecule: Cc1[nH]c(/C=C2\C(=O)Nc3ccccc32)c(C)c1CCC(=O)O [Orantinib]
relative viability: 0.977

Molecule: C#Cc1cccc(Nc2ncnc3cc4c(cc23)OCCOCCOCCO4)c1
relative viability: 0.973

Molecule: COc1cc(N2CCC(N3CCN(C)CC3)CC2)ccc1Nc1ncc(Cl)c(Nc2ccccc2P(C)(C)=O)n1
relative viability: 0.317

Molecule: Cc1cc(F)c(C(=O)Nc2cccc(-c3nncn3C(C)C)n2)cc1-n1cnc(C2CC2)c1
relative viability: 0.994

---

Entries and their relative viability
Test system: HS729
Protocol: relative viability vs DMSO control (72 h) (fraction); higher = more viable cells
Recorded Conditions: 1.111 µM
Measurement Type: relative viability

Compound: C#Cc1cccc(Nc2ncnc3cc4c(cc23)OCCOCCOCCO4)c1
Measurement Type: relative viability
Experimental Value: 0.957
//
Compound: CNC(=O)c1c(C)oc2cc(Oc3ncnc4cc(OC)c(OC)cc34)ccc12
Measurement Type: relative viability
Experimental Value: 0.794
//
Compound: O=S(=O)(c1cccc2c(O)nccc12)N1CCCNCC1 [Hydroxyfasudil]
Measurement Type: relative viability
Experimental Value: 0.95
//
Compound: CN(C)CCCOc1ccc(-c2ccc3ncc4c(c3c2)n(C2CCOCC2)c(=O)n4C)cn1
Measurement Type: relative viability
Experimental Value: 0.766
//
Compound: COC(=O)c1ccc2c(c1)NC(=O)/C2=C(\Nc1ccc(N(C)C(=O)CN2CCN(C)CC2)cc1)c1ccccc1
Measurement Type: relative viability
Experimental Value: 0.738
//
Compound: CCOc1cc2ncc(C#N)c(Nc3ccc(OCc4ccccn4)c(Cl)c3)c2cc1NC(=O)/C=C/CN(C)C
Measurement Type: relative viability
Experimental Value: 0.639
//
Compound: Cc1c2oc3c(C)ccc(C(=O)N[C@@H]4C(=O)N[C@H](C(C)C)C(=O)N5CCC[C@H]5C(=O)N(C)CC(=O)N(C)[C@@H](C(C)C)C(=O)O[C@@H]4C)c3nc-2c(C(=O)N[C@@H]2C(=O)N[C@H](C(C)C)C(=O)N3CCC[C@H]3C(=O)N(C)CC(=O)N(C)[C@@H](C(C)C)C(=O)O[C@@H]2C)c(N)c1=O
Measurement Type: relative viability
Experimental Value: 0.108
//
Compound: Cc1cc(F)c(C(=O)Nc2cccc(-c3nncn3C(C)C)n2)cc1-n1cnc(C2CC2)c1
Measurement Type: relative viability
Experimental Value: 0.875
